Could you please report measured growth inhibition for the items listed next?
Assay: NCI Yeast Anticancer Drug Screen. Data for the rad50 strain (AID 155);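 note: 0% = growth of vehicle-only cultures of the same strain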
Settings: S. cerevisiae rad50 strain growth inhibition; at 50.0 µM (retest, dose inferred, filed as 5.0); hits give high values
Compounds without any hit were thinned out: in the full panel of roughly 79,000, 15% have a hit.
# number only, unit % dropped from output

// query growth inhibition value for entry `O=C(/C=C\C(=O)Nc1cccc(N(Cc2ccccc2)Cc2ccccc2)c1)Nc1cccc(N(Cc2ccccc2)Cc2ccccc2)c1` 2

// query growth inhibition value for entry COc1cccc2c1OC(c1ccc(C#N)cc1)C([N+](=O)[O-])=C2 (stereo not given) 97

// query growth inhibition value for entry `COC(=O)CCCC(=O)NC1=C(Nc2ccccc2)C(=O)c2ccccc2C1=O` 72

// query growth inhibition value for entry `COc1ccc2cc(Br)ccc2c1` -25

// query growth inhibition value for entry CC(=O)OC1=CC2(OC(C)=O)CC(C)(C)C1C1C(=O)C=CC(=O)C12 (stereo not given) 14

* * *

Assay: NCI Yeast Anticancer Drug Screen. Data for the mlh1 rad18 strain (AID 175)
Conditions: S. cerevisiae mlh1 rad18 strain growth inhibition; at 50.0 µM (retest, dose inferred, filed as 5.0); hits give high values
About 79,000 compounds went through this panel and 15% of them were active in at least one assay; those are over-represented in the sample as a whole.
Could you please report measured growth inhibition for the items listed next?
# number only, unit % dropped from output

// query growth inhibition value for entry O=C(O)C1CCC(CC2CC3CCC2C3)CC1 (centres undefined) 86

// query growth inhibition value for entry CN(C)CC1CCc2ccc3ccccc3c2C1=O (centres undefined) 65

// query growth inhibition value for entry `NC(=S)C(=S)N/C=C/c1nc2ccccc2[nH]c1=O` 98

// query growth inhibition value for entry Nc1ncnc2c1ncn2C1OCC(OCc2ccccc2)C(OCc2ccccc2)C1OCc1ccccc1 (centres undefined) 99

// query growth inhibition value for entry O=C(CC(O)(C(F)(F)F)C(F)(F)Cl)CC(O)(C(F)(F)F)C(F)(F)Cl (centres undefined) 99

// query growth inhibition value for entry `Cc1cc(C2c3ccccc3-c3ccccc32)cc(C)c1O` 18

// query growth inhibition value for entry `O=C(O)c1ccc2c(O)c3ccccc3c(O)c2c1` 65

// query growth inhibition value for entry `C(=N\NC1=NCCN1)/c1ccc(-c2cn3cc(/C=N/NC4=NCCN4)ccc3n2)cc1` 99

// query growth inhibition value for entry `CC(=O)[C@H]1CC[C@H]2[C@@H]3CC[C@H]4C[C@@H](N5CCOCC5)CC[C@]4(C)[C@H]3CC[C@]12C` 69

// query growth inhibition value for entry `CN=C(N)N/N=C(\C)c1ccc2c(ccc3ccccc32)c1` 97

// query growth inhibition value for entry COc1ccc(C2CN(C(=O)c3ccccc3)N=C(c3ccccc3)O2)cc1 (centres undefined) -6

// query growth inhibition value for entry `CC(=O)N(N)c1ccccc1` 87

// query growth inhibition value for entry COc1cc([C@H]2c3c(cc(OC)c(OC)c3OC)CC3COC(=O)[C@@H]32)cc2c1OCO2 (some centres undefined) 9

// query growth inhibition value for entry `CCCCCCCCCCCC[n+]1ccc(C)cc1` 99

// query growth inhibition value for entry `COc1cc(F)ccn1` -3

// query growth inhibition value for entry CC(=O)OC1=CC2(OC(C)=O)CC(C)(C)C1C1C(=O)C=CC(=O)C12 (centres undefined) 21

// query growth inhibition value for entry `S=C(Nc1ccc2cn[nH]c2c1)Nc1ccc2cn[nH]c2c1` 17

// query growth inhibition value for entry `O=[N+]([O-])c1ccc(O)c(-c2ccccc2)c1` 99

// query growth inhibition value for entry `O=S(=O)(N=S(c1ccc(Cl)cc1)c1ccc(Cl)cc1)c1ccccc1` 10

// query growth inhibition value for entry `O=C(O)CCCCCCCCC(=O)CCl` 98

// query growth inhibition value for entry `O=S(=O)(Nc1ccc(-c2ccc(Cl)cc2)cc1)c1ccccc1` 98

// query growth inhibition value for entry CNCC(O)c1cccc(O)c1 (centres undefined) -5

// query growth inhibition value for entry `COc1cccc(/C=C/C(C)=O)c1OC` 7

// query growth inhibition value for entry CN(C)CC1CCC2=C(C1=O)C(c1ccc(Cl)c(Cl)c1)C1=C(CCC(CN(C)C)C1=O)O2 (centres undefined) 1

* * *

Could you please report measured growth inhibition for the items listed next?
Test: NCI Yeast Anticancer Drug Screen. Data for the sgs1 mgt1 strain (AID 161);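 note: 0% = growth of cultures given vehicle only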
Details: S. cerevisiae sgs1 mgt1 strain, at 50.0 µM, hits give high values
Compounds without any hit were thinned out: in the full panel of roughly 79,000, 15% have a hit. Active and inactive are the calls of the source. Rule as the data show it: active = growth inhibition above about 70%; inactive = the rest.

// query growth inhibition value for entry `COc1ccc(/C=N/N=c2\[nH][nH]/c(=N\N=C\c3ccc(OC)c4ccccc34)c3ccccc23)c2ccccc12` 86.9% (active)

// query growth inhibition value for entry CC(C)C1=CC23CCC4C(C)(C(=O)O)CCCC4(C)C2CC1c1c(O)ccc(O)c13 (stereo not given) 99.3% (active)

// query growth inhibition value for entry `Cn1c(=S)c2[nH]c(SCCN3CCOCC3)nc2n(C)c1=O` 99.4% (active)

// query growth inhibition value for entry CCC1=C(c2ccccc2)C(O)(c2ccccc2)C(CC)C1=O (stereo not given) 97.3% (active)

// query growth inhibition value for entry `COc1ccc(Cc2ccccc2C(=O)O)c2ccccc12` 99.5% (active)

// query growth inhibition value for entry `C1=C(c2ccccc2)CCc2ccccc21` -1.95% (inactive)

// query growth inhibition value for entry `Cn1cc(-c2c3c(cc4c2OCO4)OCO3)c2ccccc21` 99.3% (active)

// query growth inhibition value for entry COc1cccc2c1C(=O)c1c(O)c3c(c(O)c1C2=O)CC(O)(C(C)=O)CC3OC1CC(N/C(C)=C/C(C)=O)C(O)C(C)O1 (stereo not given) 88.9% (active)

// query growth inhibition value for entry `Cc1nc(Nc2ccc(Cl)cc2)sc1C(=O)NNC(=O)C(=O)NN` 61.8% (inactive)

// query growth inhibition value for entry `OCC1CC[N-]CC1.OCC1CC[N-]CC1.[Cl][Pt+2]([Cl])([Cl])[Cl]` 96.8% (active)

// query growth inhibition value for entry `CCOC(=O)c1c(N2CCCC2)nsc1Nc1ccc(F)cc1` 92% (active)

// query growth inhibition value for entry CC(=O)C(C(=N)C#N)C(=O)Nc1ccccc1 (stereo not given) -22.7% (inactive)

// query growth inhibition value for entry CC1SC2(C(=O)Nc3ccc([N+](=O)[O-])cc32)N(c2ccc(Cl)cc2)C1=O (stereo not given) 79.2% (active)

// query growth inhibition value for entry CC1(C)COC(c2cccc(C(O)c3ccc(Cl)cc3)c2)=N1 (stereo not given) 72.5% (active)

// query growth inhibition value for entry O=[N+]([O-])C1C2C=CC(C2)[C@H]1c1ccc(Cl)cc1Cl (stereo not given in full) 92.2% (active)

// query growth inhibition value for entry `CCN(CC)C(=S)N/N=C/c1cc(OC)ccc1O` 62.4% (inactive)

// query growth inhibition value for entry `C=CCOCCC(=O)OCC=C` 15.9% (inactive)

// query growth inhibition value for entry `CC(=O)/C(=C\c1ccc(Cl)cc1Cl)C(=O)CCN(C)C` 97.3% (active)

// query growth inhibition value for entry Clc1ccc(OCC(Cn2ccnc2)c2ccc(Cl)cc2)cc1 (stereo not given) 99.8% (active)

// query growth inhibition value for entry O=C1C=C(c2ccccc2)OC1(Nc1ccccc1)c1ccccc1 (stereo not given) 76.4% (active)

// query growth inhibition value for entry `Cc1nc(Nc2ccc(Cl)cc2)sc1C(=O)Nc1cccc2c(=O)[nH][nH]c(=O)c12` 91% (active)

// query growth inhibition value for entry `CN1C(=O)[C@@H]2N(N(C)C1=O)[C@@]1(Br)C(=O)N(C)C(=O)[C@@]21Br` 87.8% (active)

// query growth inhibition value for entry `Cc1nc2c(cnn2C)cc1CCc1ccccc1` 19.6% (inactive)

// query growth inhibition value for entry O=C1CCCCCCC2=C1C(Sc1ccccc1)CC2 (stereo not given) 75.2% (active)

// query growth inhibition value for entry `Cc1ccc(-c2n[nH]c(=O)n2/N=C\c2ccccc2)cc1` 50.1% (inactive)

// query growth inhibition value for entry `Cn1ncc2c(NCc3ccc(Cl)cc3)nc(Cl)nc21` 98% (active)

// query growth inhibition value for entry `CN(C)[C@@H]1C(=O)C(C(=O)NCNc2nc3n[nH]nc3c(=O)[nH]2)=C(O)[C@@]2(O)C(=O)C3=C(O)c4c(O)cccc4[C@@](C)(O)[C@H]3C[C@@H]12` -7% (inactive)

// query growth inhibition value for entry O=C1C(C(O)(C(F)(F)Cl)C(F)(F)Cl)CCCC1C(O)(C(F)(F)Cl)C(F)(F)Cl (stereo not given) 99.8% (active)

// query growth inhibition value for entry `O=[N+]([O-])c1cc(Br)cc2c1nc(NCCCO)c1ccccc12` 98.5% (active)

// query growth inhibition value for entry `Cc1cccc2c(CC(=O)O)cccc12` 52.5% (inactive)

// query growth inhibition value for entry CCCCCCCCN(CCCCCCCC)CC(O)c1cc(OCC)nc2ccccc12 (stereo not given) 97.4% (active)

// query growth inhibition value for entry `COc1ccc(/C=C\Cc2cc3c(cc2OCCO)OCO3)cc1` 97.8% (active)

// query growth inhibition value for entry CC1(c2ccccc2)Nc2ccccc2C1=Nc1ccccc1 (stereo not given) 96.3% (active)

// query growth inhibition value for entry `O=C(OCc1ccccc1)c1ccc(O)cc1` 98.5% (active)

// query growth inhibition value for entry `Clc1ccc2nc3ccccc3nc2c1` 79.6% (active)

// query growth inhibition value for entry `O=C(Oc1ccc(O)c2ccccc12)c1ccccc1` 98.3% (active)

// query growth inhibition value for entry `O=C(O)/C=C/c1ccc(Cl)cc1Cl` 65.8% (inactive)

// query growth inhibition value for entry `COc1ccc(C(=O)c2cc(Br)ccc2O)cc1` 84% (active)

// query growth inhibition value for entry `c1ccc([P+](Cc2ccc(C[P+](c3ccccc3)(c3ccccc3)c3ccccc3)s2)(c2ccccc2)c2ccccc2)cc1` 80.7% (active)

// query growth inhibition value for entry `CN(C)CC/C(=N\Nc1ccc(Cl)cc1Cl)c1ccccc1` 99.5% (active)

// query growth inhibition value for entry `S=c1[nH]c2cc(-c3ccccc3)ccc2o1` 78% (active)

// query growth inhibition value for entry `O=C(CNc1ccccc1[N+](=O)[O-])Nn1c(-c2ccccc2)nc2ccccc2c1=O` 69% (inactive)

// query growth inhibition value for entry `O=C(CBr)N1c2ccccc2S(=O)(=O)c2ccc3ccccc3c21` 81.2% (active)

// query growth inhibition value for entry `CCCCN(CCCC)C(=O)c1ccc(Cl)cc1Cl` 98.4% (active)

// query growth inhibition value for entry `Cc1cc(-c2ccc(O)c(C)c2)ccc1O` 74.6% (active)
